- System: S. japonicum (Chinese strain)
- assay-details: In vivo antischistosomal assay in infected mice (worm burden, worm morphology, liver eggs)
- Set-up: species or system Schistosoma japonicum in ICR mice
- condition-summary: mice, oral 100 mg/kg/day for 5 days, juvenile stage (from 9 dpi); 100 mg/kg/day
Exercise: state measured Worm burden reduction (WBR), Juvenile for each of the compounds provided.
Answer format: numeric, % implied, no suffix.

Data request: Entry O=C(C1CCCCC1)N1CC(=O)N2CCc3ccccc3C2C1 (stereo not shown) [PZQ, praziquantel, reference compound] has what Worm burden reduction (WBR), Juvenile?
Data returned: 0

Data request: // same read-out, input: CN(NC(=O)c1ccc(Br)cc1)c1ccc(C(F)(F)F)c(Cl)c1 [Compound 41]
Data returned: 30

Data request: // same read-out, input: CN(NC(=O)c1ccc(Br)cc1)c1ccc(Cl)c(Cl)c1 [Compound 18]
Data returned: 40

Data request: // same read-out, input: CN(NC(=O)c1ccc(Cl)c(Cl)c1)c1ccc(Br)cc1 [Compound 5]
Data returned: 25

----------
- System: S. japonicum (Chinese strain)
- assay-details: In vivo antischistosomal assay in infected mice (worm burden, worm morphology, liver eggs)
- Design: species or system Schistosoma japonicum in ICR mice
- condition-summary: mice, oral 100 mg/kg/day for 5 days, juvenile stage (treatment from 9 dpi, sacrifice 45 dpi)
Exercise: state measured Number of worms, Juvenile for each of the compounds provided.

Data request: Entry CN(NC(=O)c1ccc(Br)cc1)c1ccc(Cl)c(Cl)c1 has what Number of worms, Juvenile?
Data returned: 24

Data request: // same read-out, input: CN(NC(=O)c1ccc(Br)cc1)c1ccc(C(F)(F)F)c(Cl)c1
Data returned: 28

Data request: // same read-out, input: O=C(C1CCCCC1)N1CC(=O)N2CCc3ccccc3C2C1 (centres unmarked) [PZQ, praziquantel, reference compound]
Data returned: 39

Data request: // same read-out, input: CN(NC(=O)c1ccc(Cl)c(Cl)c1)c1ccc(Br)cc1
Data returned: 30

Data request: // same read-out, input: O=C(Nc1ccc(Cl)c(Cl)c1)Nc1ccc(Cl)c(Cl)c1 [MMV665852, reference compound]
Data returned: 32

----------
- Tested on: adult worms of S. japonicum (Chinese strain)
- assay-details: microbe, parasite or virus in culture
- condition-summary: Schistosoma japonicum, 48 h, read-out: Mortality (%) 48 h, 100 μM, 48 h, adult worms in vitro
Category | rule: reported mortality at 100 µM within range, see label 0 (below 10%), label 1 (10% to below 40%), label 2 (40% or more)

Data request: Which class is correct for the following molecule? CN(NC(=O)c1ccc(Br)cc1)c1ccc(C(F)(F)F)cc1
Data returned: label 2

Data request: // same read-out, input: CN(NC(=O)c1ccc(Cl)c(Cl)c1)c1ccccc1Cl
Data returned: label 0

Data request: // same read-out, input: CN(NC(=O)c1ccc(F)c(C(F)(F)F)c1)c1ccc(Cl)c(Cl)c1
Data returned: label 1

Data request: // same read-out, input: CN(NC(=O)c1ccc(Br)cc1)c1cccc(Br)c1
Data returned: label 1

Data request: // same read-out, input: CN(NC(=O)c1ccc(F)c(F)c1)c1ccc(Cl)c(Cl)c1
Data returned: label 2

Data request: // same read-out, input: CN(NC(=O)c1ccc(Cl)cc1)c1ccc(Cl)c(Cl)c1
Data returned: label 1

Data request: // same read-out, input: CN(NC(=O)c1ccc(Br)cc1)c1cccc(Cl)c1
Data returned: label 0

Data request: // same read-out, input: Cc1ccc(N(C)NC(=O)c2ccc(Cl)c(Cl)c2)cc1
Data returned: label 2

Data request: // same read-out, input: CN(NC(=O)c1ccc(C#N)cc1)c1ccc(Cl)c(Cl)c1
Data returned: label 2

Data request: // same read-out, input: Cc1cccc(C(=O)NN(C)c2ccc(Cl)c(Cl)c2)c1
Data returned: label 0

Data request: // same read-out, input: CN(NC(=O)c1ccc([N+](=O)[O-])cc1)c1ccc(Cl)c(Cl)c1
Data returned: label 1

Data request: // same read-out, input: CN(NC(=O)c1ccc(C(F)(F)F)cc1)c1ccc(Cl)c(Cl)c1
Data returned: label 1

Data request: // same read-out, input: O=C(Nc1ccc(Cl)c(Cl)c1)Nc1ccc(Cl)c(Cl)c1 [MMV665852, reference compound]
Data returned: label 2

Data request: // same read-out, input: CN(NC(=O)c1ccc(Cl)c(Cl)c1)c1ccc(Br)cc1
Data returned: label 2

Data request: // same read-out, input: CN(NC(=O)c1ccc(Cl)c(Cl)c1)c1ccc(Cl)c(C(F)(F)F)c1
Data returned: label 2

Data request: // same read-out, input: CN(NC(=O)c1ccc(Cl)c(Cl)c1)c1ccccc1F
Data returned: label 0

Data request: // same read-out, input: CN(NC(=O)c1ccc(Br)cc1)c1ccc(F)cc1
Data returned: label 0

Data request: // same read-out, input: CN(NC(=O)c1ccc(Cl)c(Cl)c1)c1ccc(Cl)c(Cl)c1
Data returned: label 2

Data request: // same read-out, input: CN(NC(=O)c1ccc(Br)cc1)c1ccc(C#N)cc1
Data returned: label 0

Data request: // same read-out, input: CN(NC(=O)c1ccc(Cl)c(Cl)c1)c1ccc(Cl)cc1
Data returned: label 0

Data request: // same read-out, input: CN(NC(=O)c1ccc(Cl)c(Cl)c1)c1ccc(C#N)cc1
Data returned: label 0

Data request: // same read-out, input: COc1ccc(N(C)NC(=O)c2ccc(Br)cc2)cc1
Data returned: label 0

Data request: // same read-out, input: Cc1ccccc1N(C)NC(=O)c1ccc(Br)cc1
Data returned: label 0

Data request: // same read-out, input: CN(NC(=O)c1ccc(Cl)c(Cl)c1)c1cccc(Br)c1
Data returned: label 1

Data request: // same read-out, input: COc1ccc(N(C)NC(=O)c2ccc(Cl)c(Cl)c2)cc1
Data returned: label 0

Data request: // same read-out, input: CN(NC(=O)c1ccc(Br)cc1)c1ccc(Br)cc1
Data returned: label 2

Data request: // same read-out, input: COc1ccc(C(=O)NN(C)c2ccc(Cl)c(Cl)c2)cc1
Data returned: label 2

Data request: // same read-out, input: CN(NC(=O)c1ccc(Br)cc1)c1ccc(Cl)cc1
Data returned: label 0

Data request: // same read-out, input: CN(NC(=O)c1ccc(Br)cc1)c1ccc(C(F)(F)F)c(Cl)c1
Data returned: label 2

Data request: // same read-out, input: CN(NC(=O)c1ccc(Cl)c(Cl)c1)c1ccc(F)cc1
Data returned: label 2

Data request: // same read-out, input: Cc1ccc(C(=O)NN(C)c2ccc(Cl)c(Cl)c2)cc1
Data returned: label 1

Data request: // same read-out, input: CN(NC(=O)c1ccc(Br)cc1)c1cc(Cl)cc(Cl)c1
Data returned: label 2

Data request: // same read-out, input: CN(NC(=O)c1ccc(Br)cc1)c1ccc(Cl)c(Cl)c1
Data returned: label 2

Data request: // same read-out, input: Cc1cccc(N(C)NC(=O)c2ccc(Cl)c(Cl)c2)c1
Data returned: label 0

----------
- System: adult worms of S. japonicum (Chinese strain)
- assay-details: microbe, parasite or virus in culture
- condition-summary: Schistosoma japonicum, 36 h, read-out: Mortality (%) 36 h, 100 μM, 36 h, adult worms in vitro
measurement-name: mortality at 100 µM (%)
Answer format: numeric, % implied, no suffix.

Data request: Entry CN(NC(=O)c1ccc(F)c(C(F)(F)F)c1)c1ccc(Cl)c(Cl)c1 [Compound 25] has what mortality at 100 µM?
Data returned: 0

Data request: // same read-out, input: Cc1cccc(C(=O)NN(C)c2ccc(Cl)c(Cl)c2)c1 [Compound 22]
Data returned: 0

Data request: // same read-out, input: CN(NC(=O)c1ccc(C(F)(F)F)cc1)c1ccc(Cl)c(Cl)c1 [Compound 19]
Data returned: 0

Data request: // same read-out, input: CN(NC(=O)c1ccc([N+](=O)[O-])cc1)c1ccc(Cl)c(Cl)c1 [Compound 21]
Data returned: 0

Data request: // same read-out, input: Cc1cccc(N(C)NC(=O)c2ccc(Cl)c(Cl)c2)c1 [Compound 7]
Data returned: 0

Data request: // same read-out, input: O=C(Nc1ccc(Cl)c(Cl)c1)Nc1ccc(Cl)c(Cl)c1 [MMV665852, reference compound]
Data returned: 100

Data request: // same read-out, input: CN(NC(=O)c1ccc(Cl)cc1)c1ccc(Cl)c(Cl)c1 [Compound 17]
Data returned: 5

Data request: // same read-out, input: CN(NC(=O)c1ccc(F)c(F)c1)c1ccc(Cl)c(Cl)c1 [Compound 24]
Data returned: 5

Data request: // same read-out, input: Cc1ccc(N(C)NC(=O)c2ccc(Cl)c(Cl)c2)cc1 [Compound 1]
Data returned: 5

----------
- Test system: adult worms of S. japonicum (Chinese strain)
- assay-details: microbe, parasite or virus in culture
- condition-summary: Schistosoma japonicum, 36 h, read-out: Mortality (%) 36 h, 100 μM, 36 h, adult worms in vitro
- From the text: S. japonicum cercariae (Chinese strain) were acquired from infected Oncomelania hupensis snails (Wuxi Insect Vector Biology Co., Ltd., China) ([28]). ICR mice (6–8 weeks, 22–25 g; Hunan SJA Laboratory Animal Co., Ltd., China) were percutaneously infected via abdominal exposure to 60 ± 5 cercariae. Adult schistosomes were perfused from the hepatic portal system at 35 dpi using a modified Duvall and DeWitt method ([29]). […]
Exercise: state measured mortality at 100 µM for each of the molecules provided.
Answer format: numeric, % implied, no suffix.

Data request: Entry COc1ccc(N(C)NC(=O)c2ccc(Cl)c(Cl)c2)cc1 has what mortality at 100 µM?
Data returned: 0

Data request: // same read-out, input: CN(NC(=O)c1ccc(Cl)c(Cl)c1)c1ccccc1Cl
Data returned: 0

Data request: // same read-out, input: CN(NC(=O)c1ccc(Cl)c(Cl)c1)c1ccc(Br)cc1
Data returned: 65

Data request: // same read-out, input: CN(NC(=O)c1ccc(Br)cc1)c1cc(Cl)cc(Cl)c1
Data returned: 20

Data request: // same read-out, input: COc1ccc(N(C)NC(=O)c2ccc(Br)cc2)cc1
Data returned: 0

Data request: // same read-out, input: CN(NC(=O)c1ccc(Br)cc1)c1ccc(C#N)cc1
Data returned: 0

Data request: // same read-out, input: CN(NC(=O)c1ccc(Br)cc1)c1ccccc1F
Data returned: 0

Data request: // same read-out, input: CN(NC(=O)c1ccc(Cl)c(Cl)c1)c1ccccc1F
Data returned: 0

Data request: // same read-out, input: CN(NC(=O)c1ccc(Br)cc1)c1ccc(Br)cc1
Data returned: 10

Data request: // same read-out, input: CN(NC(=O)c1ccc(Br)cc1)c1cccc(Cl)c1
Data returned: 0

Data request: // same read-out, input: CN(NC(=O)c1ccc(Br)cc1)c1ccccc1Cl
Data returned: 0

Data request: // same read-out, input: Cc1ccc(C(=O)NN(C)c2ccc(Cl)c(Cl)c2)cc1
Data returned: 20

Data request: // same read-out, input: Cc1ccc(N(C)NC(=O)c2ccc(Br)cc2)cc1
Data returned: 0

Data request: // same read-out, input: CN(NC(=O)c1cccc(Cl)c1)c1ccc(Cl)c(Cl)c1
Data returned: 5

Data request: // same read-out, input: CN(NC(=O)c1ccc(Cl)c(Cl)c1)c1ccc(Cl)c(C(F)(F)F)c1
Data returned: 25

Data request: // same read-out, input: CN(NC(=O)c1ccc(Cl)c(Cl)c1)c1cccc(Br)c1
Data returned: 0

Data request: // same read-out, input: CN(NC(=O)c1ccc(Cl)c(Cl)c1)c1ccc(C#N)cc1
Data returned: 0

Data request: // same read-out, input: CN(NC(=O)c1ccc(Br)cc1)c1ccc(C(F)(F)F)c(Cl)c1
Data returned: 70

Data request: // same read-out, input: CN(NC(=O)c1ccc(Br)cc1)c1ccc(Cl)c(Cl)c1
Data returned: 50

Data request: // same read-out, input: Cc1ccccc1N(C)NC(=O)c1ccc(Br)cc1
Data returned: 0

Data request: // same read-out, input: CN(NC(=O)c1ccc(C#N)cc1)c1ccc(Cl)c(Cl)c1
Data returned: 0

Data request: // same read-out, input: CN(NC(=O)c1ccc(Cl)c(Cl)c1)c1cccc(Cl)c1
Data returned: 0

Data request: // same read-out, input: CN(NC(=O)c1ccc(Cl)c(Cl)c1)c1ccc(F)cc1
Data returned: 0

Data request: // same read-out, input: CN(NC(=O)c1ccc(Br)cc1)c1cccc(C(F)(F)F)c1
Data returned: 0

Data request: // same read-out, input: CN(NC(=O)c1ccc(Br)cc1)c1ccc(C(F)(F)F)cc1
Data returned: 10

Data request: // same read-out, input: Cc1cccc(N(C)NC(=O)c2ccc(Br)cc2)c1
Data returned: 15

Data request: // same read-out, input: CN(NC(=O)c1ccc(Cl)c(Cl)c1)c1ccc(Cl)c(Cl)c1
Data returned: 15
